experimentNotes: Plasma pharmacokinetics after IV administration
Format: in vivo, Sprague-Dawley male rats
protocolConditions: male, Sprague-Dawley, rat, 5 mg/kg
measuredProperty: AUC(0-inf) (ng·h/mL)
Hi! Could you send only the number? It should be in ng·h/mL, unit omitted.

Requested field: AUC(0-inf). Item: "CC(=O)c1c(C)c2cnc(Nc3ccc(N4CCNCC4)cn3)nc2n(C2CCCC2)c1=O"
1920

---

experimentNotes: Tissue distribution after IV administration
Assay type: in vivo, Sprague-Dawley male rats
protocolConditions: male, Sprague-Dawley, rat, lungs, iv, 5 mg/kg
measuredProperty: Cmax (ng/g)
Hi! Could you send only the number? It should be in ng/g, unit omitted.

Requested field: Cmax. Item: CC(=O)c1c(C)c2cnc(Nc3ccc(N4CCNCC4)cn3)nc2n(C2CCCC2)c1=O [Palbo, Palbociclib]
12700

---

experimentNotes: Tissue distribution after IV administration
Type: in vivo, Sprague-Dawley male rats
protocolConditions: male, Sprague-Dawley, rat, liver, iv, 5 mg/kg
measuredProperty: Cmax (ng/g)
Hi! Could you send only the number? It should be in ng/g, unit omitted.

Requested field: Cmax. Item: "CC(=O)c1c(C)c2cnc(Nc3ccc(N4CCNCC4)cn3)nc2n(C2CCCC2)c1=O"
2440

---

experimentNotes: Tissue distribution after IV administration
Format: in vivo, Sprague-Dawley male rats
protocolConditions: male, Sprague-Dawley, rat, cerebellum, iv, 5 mg/kg
measuredProperty: Cmax (ng/g)
Hi! Could you send only the number? It should be in ng/g, unit omitted.

Requested field: Cmax. Item: "CC(=O)c1c(C)c2cnc(Nc3ccc(N4CCNCC4)cn3)nc2n(C2CCCC2)c1=O"
120

---

experimentNotes: Plasma pharmacokinetics after IV administration
Assay type: in vivo, Sprague-Dawley male rats
protocolConditions: male, Sprague-Dawley, rat, 5 mg/kg, CL, 5 mg/kg IV, rats
measuredProperty: clearance (L/h/kg)
Hi! Could you send only the number? It should be in L/h/kg, unit omitted.

Requested field: clearance. Item: "CC(=O)c1c(C)c2cnc(Nc3ccc(N4CCNCC4)cn3)nc2n(C2CCCC2)c1=O"
1.31

---

experimentNotes: Tissue distribution after IV administration
Format: in vivo, Sprague-Dawley male rats
protocolConditions: male, Sprague-Dawley, rat, kidney, iv, 5 mg/kg
measuredProperty: Cmax (ng/g)
Hi! Could you send only the number? It should be in ng/g, unit omitted.

Requested field: Cmax. Item: "CC(=O)c1c(C)c2cnc(Nc3ccc(N4CCNCC4)cn3)nc2n(C2CCCC2)c1=O"
485
